target: Potassium voltage-gated channel subfamily KQT member 1 (Homo sapiens) (UniProt P51787); assay: inhibitors of human KCNQ1 channel, primary screen, cell-based, thallium flux, high-throughput (AID 2642); conditions: CHO-K1 KCNQ1, FluxOR thallium flux fluorescence, at 10 µM; stronger effect = higher value;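 also: channel opened by potassium depolarization with thallium stimulus after 20 min compound exposure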
Sequence (P51787 whole entry, looked up): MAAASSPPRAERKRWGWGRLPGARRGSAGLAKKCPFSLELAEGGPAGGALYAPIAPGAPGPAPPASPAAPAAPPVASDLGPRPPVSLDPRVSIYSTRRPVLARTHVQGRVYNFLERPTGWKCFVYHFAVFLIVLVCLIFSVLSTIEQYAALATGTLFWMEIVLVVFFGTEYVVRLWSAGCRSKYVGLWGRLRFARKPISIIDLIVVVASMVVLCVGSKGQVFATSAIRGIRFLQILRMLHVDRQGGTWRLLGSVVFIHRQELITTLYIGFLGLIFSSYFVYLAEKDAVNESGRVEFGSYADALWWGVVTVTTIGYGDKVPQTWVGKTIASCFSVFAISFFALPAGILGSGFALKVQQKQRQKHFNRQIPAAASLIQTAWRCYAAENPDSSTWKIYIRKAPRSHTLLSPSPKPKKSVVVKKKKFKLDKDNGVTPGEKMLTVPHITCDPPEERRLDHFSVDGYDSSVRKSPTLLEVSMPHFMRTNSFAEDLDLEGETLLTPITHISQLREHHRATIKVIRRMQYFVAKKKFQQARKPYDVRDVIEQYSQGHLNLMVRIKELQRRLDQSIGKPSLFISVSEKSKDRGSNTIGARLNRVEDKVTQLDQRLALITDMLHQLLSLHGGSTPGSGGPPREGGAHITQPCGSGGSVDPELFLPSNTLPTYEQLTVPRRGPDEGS
Hit rate of the full screen: of about 310,000 compounds, about 3,900 (1.3%) were called active. The sample as a whole holds a higher share of actives than the screen did.
Measured attribute: B-score

Solved cases (6 shown):
O=C(Nc1nc2ccc([N+](=O)[O-])cc2s1)c1ccc(S(=O)(=O)N2CCCc3ccccc32)cc1 = 9 (active)
Cc1cccc(NC(=O)NC(=S)NC(=O)c2ccccc2)c1 = inactive
Brc1ccccc1/C=N/Nc1nc2ccccc2o1 = inactive
CCCCCCCCCCOC(=O)Cn1c(COc2cccc(OC)c2)[n+](C)c2ccccc21 = 8 (active)
COc1ccc(OC)c(S(=O)(=O)NCCC(C)C)c1 = inactive
Oc1c(Br)cccc1/C=N/Nc1c(F)c(F)c(F)c(F)c1F = 7 (active)

Q. Entry Cc1cc(C)c(NC(=O)C[N+](C)(C)CC(O)COc2cccc3ccccc23)c(C)c1 (stereo not drawn) , system Potassium voltage-gated channel subfamily KQT member 1 (Homo sapiens) (UniProt P51787): what B-score was measured?
A. inactive

Q. Also, COc1cc(OC)c(S(=O)(=O)Nc2ccccc2C(=O)O)cc1S(=O)(=O)Nc1ccccc1C(=O)O please.
A. inactive

Q. Try this compound too: CC1C(=O)Nc2ccc(S(=O)(=O)N3CCN(c4ccccc4F)CC3)cc2NC1=O (stereo not drawn)
A. inactive

Q. Param item: CC1CCCN(S(=O)(=O)c2ccc(N(C(=O)c3cnccn3)C(C(=O)NC3CCCCC3)c3cccs3)cc2)C1 (stereo not drawn)
A. inactive

Q. Moving on to CN(C)CCCN(C(=O)c1ccc(S(=O)(=O)N2CCCc3ccccc32)cc1)c1nc2ccc(F)cc2s1
A. inactive

Q. Moving on to the next compound: CC(C)N(C(=O)Cn1cc(S(=O)(=O)CC(=O)N2CCOCC2)c2ccccc21)C(C)C
A. inactive

Q. Then Clc1ccccc1CSc1nnc(-c2ccco2)c(-c2ccco2)n1 ?
A. 11 (active)

Q. CCOC(=O)c1ccc(NC(=O)CCn2c(=O)oc3ccccc32)cc1 ?
A. inactive

Q. Another compound: CCCCNCc1ccc(SC)cc1
A. inactive

Q. Then this compound: Cc1ccccc1NC(=O)CNc1ccccc1N1CCCCC1
A. inactive

Q. Next record, please: CCC(C)NC(=O)CN(C1CCCCC1)S(C)(=O)=O (stereo not drawn)
A. inactive

Q. Likewise for CCN(C(=O)COc1ccc(C(=O)c2ccccc2)cc1)c1ccccc1 ?
A. inactive
